Reference source: the supplement of paper PMC10883282

Test system: HT1080
measurement_protocol: relative viability vs DMSO control (72 h) (fraction); higher = more viable cells
particulars: 0.00051 µM
property_measured: relative viability
Just the number, please, no unit attached.

Ask | Lookup: relative viability / HT1080 / `Cc1ccc(F)c(NC(=O)Nc2ccc(-c3cccc4[nH]nc(N)c34)cc2)c1`
Reply | 1.08

Ask | Can you check `CN1CCN(c2ccc3nc(-c4c(N)c5c(F)cccc5[nH]c4=O)[nH]c3c2)CC1` next?
Reply | 1.09

Ask | Also `CC[C@H](Nc1ncnc2[nH]cnc12)c1nc2cccc(F)c2c(=O)n1-c1ccccc1` , if possible.
Reply | 1.1

---

Would you kindly list relative viability for each of these molecules?
Test system: HS729
measurement_protocol: relative viability vs DMSO control (72 h) (fraction); higher = more viable cells
particulars: 0.00017 µM
Response field accepts a number only; no unit should be typed.

Ask | HS729 / relative viability / `C[C@@H](c1ccc2nccn2c1)n1nnc2ncc(-c3cnn(C)c3)nc21` : value?
Reply | 0.947

Ask | Can you check `O=C(Cc1ccc(-c2ccc(OCCN3CCOCC3)cc2)cn1)NCc1ccccc1` next?
Reply | 1.09

Ask | Item: `COc1c(OCCCN2CCOCC2)ccc2c1N=C(NC(=O)c1cnc(N)nc1)N1CCN=C21`
Reply | 1.05

Ask | Do the same for `Cc1nc(-c2cn3c(n2)-c2ccc(-c4cnn(C(C)(C)C(N)=O)c4)cc2OCC3)n(C(C)C)n1` please
Reply | 0.913

Ask | Please give the result for `CNC(=O)c1ccc(-c2cnc3ncc(Cc4ccc5ncccc5c4)n3n2)cc1F` too.
Reply | 0.949

---

Tested on: SW872
measurement_protocol: relative viability vs DMSO control (72 h) (fraction); higher = more viable cells
particulars: 0.00152 µM
Exercise: for every item that follows, state its recorded relative viability.
In your answer, state the number alone without any accompanying words.

Ask | Any idea what relative viability was measured for `C=CC(=O)N1CCC[C@@H](n2nc(-c3ccc(Oc4ccccc4)cc3)c3c(N)ncnc32)C1` ?
Reply | 1.06

Ask | What about this molecule? `CCc1cc2c(cc1N1CCC(N3CCOCC3)CC1)C(C)(C)c1[nH]c3cc(C#N)ccc3c1C2=O`
Reply | 1.05

Ask | Consider next the molecule `Cc1cnc(Nc2ccc(OCCN3CCCC3)cc2)nc1Nc1cccc(S(=O)(=O)NC(C)(C)C)c1` in the same way.
Reply | 1.05

Ask | Field entry: `O=C(Nc1cnn2ccc(N3CCC[C@@H]3c3cc(F)ccc3F)nc12)N1CC[C@H](O)C1`
Reply | 1.09

Ask | And for `C[C@]1(O)C[C@@H](c2nc(-c3ccc4ccc(-c5ccccc5)nc4c3)c3c(N)nccn32)C1` ?
Reply | 1.03

Ask | What would you report for `COCc1c(-c2cc3cc(C)cc(OC)c3s2)c2c(N)ncnn2c1CN1CCNC(=O)C1` ?
Reply | 1.06

Ask | Also need `N#CC[C@H](C1CCCC1)n1cc(-c2ncnc3[nH]ccc23)cn1` , thanks.
Reply | 1.05

Ask | Repeat for the following molecule: `O=C(Cc1ccc(-c2ccc(OCCN3CCOCC3)cc2)cn1)NCc1ccccc1`
Reply | 1.08

Ask | // query: `COc1cc2/c(=N/c3ccc(Br)cc3F)nc[nH]c2cc1OCC1CCN(C)CC1`
Reply | 1

Ask | Try `Cn1cc(-c2cc3c(N4CCN(c5ncc([C@@](C)(N)c6ccc(F)cc6)cn5)CC4)ncnn3c2)cn1` next.
Reply | 0.965

---

System: SYO-1
measurement_protocol: relative viability vs DMSO control (72 h) (fraction); higher = more viable cells
particulars: 0.00152 µM
Counter-ions that a name gives are not always drawn.
property_measured: relative viability
// return a plain number; no unit text

Ask | Which relative viability reading was recorded for the compound `Cc1ccc(NC(=O)c2ccc(CN3CCN(C)CC3)cc2)cc1Nc1nc(-c2cccnc2)cs1` ?
Reply | 1.01

Ask | Then what about the compound COc1cccc2c1C(=O)c1c(O)c3c(c(O)c1C2=O)C[C@@](O)(C(=O)CO)C[C@@H]3O[C@H]1C[C@H](N)[C@H](O)[C@H](C)O1 [Doxorubicin Hydrochloride] ?
Reply | 0.899

Ask | What about this compound? `O=C(Nc1cnn2ccc(N3CCC[C@@H]3c3cc(F)ccc3F)nc12)N1CC[C@H](O)C1`
Reply | 0.979

Ask | Next entry: `C[C@@H]1COCCN1c1cc(-c2ccnn2C)c2ccnc(-c3ccn[nH]3)c2n1`
Reply | 0.911

Ask | # repeat for `CCN1CCN(Cc2ccc(Nc3ncc(F)c(-c4cc(F)c5nc(C)n(C(C)C)c5c4)n3)nc2)CC1`
Reply | 0.925

Ask | Please do the same for `CCCS(=O)(=O)Nc1ccc(F)c(C(=O)c2c[nH]c3ncc(-c4ccc(Cl)cc4)cc23)c1F` as well.
Reply | 0.963

---

Test system: KHOS-NP
measurement_protocol: standardised AUC of viability dose-response curve (72 h) (fraction (0-1)); higher = less growth inhibition (more resistant)
property_measured: standardised AUC
// return a plain number; no unit text

Ask | // lookup standardised AUC for `CN1CCN(c2ccc3nc(-c4c(N)c5c(F)cccc5[nH]c4=O)[nH]c3c2)CC1`
Reply | 0.917

Ask | Entry `CN1CCC(COc2cnc(-c3cccc(Cn4nc(-c5cccc(C#N)c5)ccc4=O)c3)nc2)CC1` please
Reply | 0.954

Ask | Item: `CO[C@H]1C[C@@H]2CC[C@@H](C)[C@@](O)(O2)C(=O)C(=O)N2CCCC[C@H]2C(=O)O[C@H]([C@H](C)C[C@@H]2CC[C@@H](OP(C)(C)=O)[C@H](OC)C2)CC(=O)[C@H](C)/C=C(\C)[C@@H](O)[C@@H](OC)C(=O)[C@H](C)C[C@H](C)/C=C/C=C/C=C/1C`
Reply | 0.97

Ask | Queued: `O=C(Nc1cnn2ccc(N3CCC[C@@H]3c3cc(F)ccc3F)nc12)N1CC[C@H](O)C1`
Reply | 0.969

Ask | Another compound to check: `C[C@]1(O)C[C@@H](c2nc(-c3ccc4ccc(-c5ccccc5)nc4c3)c3c(N)nccn32)C1`
Reply | 0.973

Ask | Now the compound `Cn1cc(-c2cc3c(N4CCN(c5ncc([C@@](C)(N)c6ccc(F)cc6)cn5)CC4)ncnn3c2)cn1`
Reply | 0.917

Ask | Also need CC(C)NC(=O)C1CCC(n2c(NC(=O)c3ccc(F)cc3)nc3ccc(CN4CCC(C(C)(C)O)CC4)cc32)CC1 (centres undefined) , thanks.
Reply | 0.973

Ask | Same lookup for `CNC(=O)c1ccc(-c2cnc3ncc(Cc4ccc5ncccc5c4)n3n2)cc1F` , please.
Reply | 0.998

Ask | Quick one: `C[C@@H]1CCN(C(=O)CC#N)C[C@@H]1N(C)c1ncnc2[nH]ccc12`
Reply | 0.982

---

Tested on: A204
measurement_protocol: standardised AUC of viability dose-response curve (72 h) (fraction (0-1)); higher = less growth inhibition (more resistant)
Give standardised AUC for every item shown.
# print the numeric value only

Ask | What standardised AUC value was documented for this compound, CC(C)NC(=O)C1CCC(n2c(NC(=O)c3ccc(F)cc3)nc3ccc(CN4CCC(C(C)(C)O)CC4)cc32)CC1 (centres undefined) [BELIZATINIB] ?
Reply | 0.922

Ask | And C[C@]1(O)C[C@@H](c2nc(-c3ccc4ccc(-c5ccccc5)nc4c3)c3c(N)nccn32)C1 [LINSITINIB] ?
Reply | 0.922

Ask | Please answer likewise for C=CC(=O)N1CCC[C@@H](n2nc(-c3ccc(Oc4ccccc4)cc3)c3c(N)ncnc32)C1 [IBRUTINIB]
Reply | 0.967

Ask | Okay, and Cc1ccc(F)c(NC(=O)Nc2ccc(-c3cccc4[nH]nc(N)c34)cc2)c1 [LINIFANIB] ?
Reply | 0.74

---

System: RD-ES
measurement_protocol: relative viability vs DMSO control (72 h) (fraction); higher = more viable cells
particulars: 0.1235 µM
Doc: threshold 0.9 (exclusive). Items with relative viability beneath it return yes (1); others return no (0).

Ask | Given `CCCS(=O)(=O)Nc1ccc(F)c(C(=O)c2c[nH]c3ncc(-c4ccc(Cl)cc4)cc23)c1F` , is recorded relative viability strictly lower than 0.9?
Reply | no (0)

Ask | Do the same for `CC(C)N1CCN(Cc2cnc(-c3cc(-c4cccc5[nH]ccc45)cc4[nH]ncc34)o2)CC1` please
Reply | no (0)

Ask | Now try `Nc1cc(C(F)(F)F)c(-c2cc(N3CCOCC3)nc(N3CCOCC3)n2)cn1` .
Reply | yes (1)

Ask | `Cc1ccc(F)c(NC(=O)Nc2ccc(-c3cccc4[nH]nc(N)c34)cc2)c1` ?
Reply | no (0)

---

Tested on: A204
measurement_protocol: relative viability vs DMSO control (72 h) (fraction); higher = more viable cells
particulars: 1.111 µM
Mark satisfied only when relative viability stays strictly below 0.4. Values equal to the cut-off are not satisfied.

Ask | Consider the compound `CN1CCN(c2ccc3nc(-c4c(N)c5c(F)cccc5[nH]c4=O)[nH]c3c2)CC1` . Is its relative viability strictly less than 0.4?
Reply | satisfied

Ask | Again, but for `Cc1cc(C)c(/C=C2\C(=O)Nc3ccccc32)[nH]1`
Reply | not satisfied

Ask | Next compound up: `C[C@@H]1CCN(C(=O)CC#N)C[C@@H]1N(C)c1ncnc2[nH]ccc12`
Reply | not satisfied

Ask | Similarly, `CNC(=O)c1ccc(-c2cnc3ncc(Cc4ccc5ncccc5c4)n3n2)cc1F` ?
Reply | not satisfied

Ask | Another compound: `C[C@@H]1COCCN1c1cc(-c2ccnn2C)c2ccnc(-c3ccn[nH]3)c2n1`
Reply | satisfied

Ask | Ok, now `Cc1ccc(F)c(NC(=O)Nc2ccc(-c3cccc4[nH]nc(N)c34)cc2)c1`
Reply | not satisfied

Ask | What do we get for `Cc1nc(NC(=O)N2CCC[C@H]2C(N)=O)sc1-c1ccnc(C(C)(C)C(F)(F)F)c1` ?
Reply | not satisfied

Ask | Please do the same for `C=CC(=O)N1CCC[C@@H](n2nc(-c3ccc(Oc4ccccc4)cc3)c3c(N)ncnc32)C1` as well.
Reply | not satisfied
